pIC50 reference
MEASUREMENT_NOTES: Cytotoxicity against human HL60/A cells after 72 hrs by MTT assay
Format: functional, cell-based
pIC50: −log10 of the molar value.
OBSERVED_PROPERTY: pIC50

INSERT INTO assay_data (mol_smiles, observed_property, relation_operator, endpoint_value) VALUES
  ('C=C1CC[C@H]2C(=C)CC[C@H]3/C(=C/c4cccc(C(F)(F)F)c4)C(=O)O[C@@H]3[C@@H]12', 'pIC50', '<', 4.30),
  ('CCc1ccc(/C=C2/C(=O)O[C@H]3[C@H]2CCC(C)=C2CC[C@@](C)(O)[C@@H]23)cc1', 'pIC50', '=', 5.21),
  ('CC[Si](CC)(CC)O[C@]1(C)CCC2=C(C)CC[C@H]3/C(=C\c4ccc(F)cc4)C(=O)O[C@@H]3[C@H]21', 'pIC50', '<', 4.30),
  ('CC[Si](CC)(CC)O[C@]1(C)CCC2=C(C)CC[C@H]3/C(=C/c4cccc(F)c4)C(=O)O[C@@H]3[C@H]21', 'pIC50', '=', 5.00);
